ASSAYED_TARGET: α2 sites
PROCEDURE_TEXT: competitive binding to α2 sites
CONDITIONS_USED: α2 sites
OBSERVABLE: pKi
Bear in mind: pKi is minus log10 of a mol/L concentration; give just that figure.

**Query** Value lookup for pKi; key = CN1CCc2c(Cl)ccc(N=[N+]=[N-])c2CC1
**Result** 7.38
